Biological target: T1, canine OX40L, full length membrane form, expressed on HEK293 cells (canine)
T1 chain: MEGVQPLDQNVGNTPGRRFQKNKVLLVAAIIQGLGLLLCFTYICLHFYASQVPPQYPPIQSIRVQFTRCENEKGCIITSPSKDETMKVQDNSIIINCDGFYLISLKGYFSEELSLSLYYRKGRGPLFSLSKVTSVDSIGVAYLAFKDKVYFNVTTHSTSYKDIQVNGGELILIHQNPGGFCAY
Experiment: cell-based or functional assay
measured_endpoint: % Signal Inhibition Rep2 (%)
One number for each entry, in %.

Below are worked cases with known answers.
PMX064 (antibody, V domains shown, also called PMX64) VH: EVQLVESGGDLVKPGGSLRLSCVASGFTFSSYHMSWVRQAPGKGLQWVAYITSGGITTSYADAVKGRFTISRDNAKNTLYLQMNSLRAEDTAVYYCASDLVLILGGADYWGQGTLVTVSS VL: SYELTQPPSVNVTLSETAHITCGGDSIGRKYVQWIQQNPGQAPVVIIYKDSNRPTGIPERFSGANSGNTATLTISGALAEDEADYYCQVGDSGTKAVFGGGTHLTVL
94.8
PMX104 (antibody, V domains shown) VH: EVQLVESGGDLVRPGGSLRLSCVASGFTFSNYHMSWVRQAPGKGLQWVAFINSGGTSTTYADAVRGRFTTSRDYAKNTLYLQMNSLRAEDTAVYYCTSGSIWTHFDYWGQGTLVTVSS VL: SFVLTQLPSVSVTLRQTARITCGGDIIGSKSVYWFQQKLGQAPILIIYRDDNRPTGIPERFSGASSGNTATLIISGALAEDEAHYYCQVWDSSSKAMFGGGTHLTVL
28.1

Query binder follows.
*Q* Quick one: % Signal Inhibition Rep2 of PMX101 (antibody, V domains shown) VH: EVQLVESGGDLVRPGGSLRLSCVASGFTFSNYHMSWVRQAPGKGLQWVAFINSGGSSTSYADAVRGRFTISRDYAKNTLYLQMNSLRAEDTAVYYCASGSIWTHFDYWGQGTLVTVSS VL: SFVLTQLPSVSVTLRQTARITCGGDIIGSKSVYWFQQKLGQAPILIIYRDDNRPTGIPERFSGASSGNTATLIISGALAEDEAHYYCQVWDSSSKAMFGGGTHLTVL ?
*A* 50.3

Data provenance is patent US20250340659A1.
